- TEST_SYSTEM: UniProtKB P41180
- Sequence (P41180 20-1078): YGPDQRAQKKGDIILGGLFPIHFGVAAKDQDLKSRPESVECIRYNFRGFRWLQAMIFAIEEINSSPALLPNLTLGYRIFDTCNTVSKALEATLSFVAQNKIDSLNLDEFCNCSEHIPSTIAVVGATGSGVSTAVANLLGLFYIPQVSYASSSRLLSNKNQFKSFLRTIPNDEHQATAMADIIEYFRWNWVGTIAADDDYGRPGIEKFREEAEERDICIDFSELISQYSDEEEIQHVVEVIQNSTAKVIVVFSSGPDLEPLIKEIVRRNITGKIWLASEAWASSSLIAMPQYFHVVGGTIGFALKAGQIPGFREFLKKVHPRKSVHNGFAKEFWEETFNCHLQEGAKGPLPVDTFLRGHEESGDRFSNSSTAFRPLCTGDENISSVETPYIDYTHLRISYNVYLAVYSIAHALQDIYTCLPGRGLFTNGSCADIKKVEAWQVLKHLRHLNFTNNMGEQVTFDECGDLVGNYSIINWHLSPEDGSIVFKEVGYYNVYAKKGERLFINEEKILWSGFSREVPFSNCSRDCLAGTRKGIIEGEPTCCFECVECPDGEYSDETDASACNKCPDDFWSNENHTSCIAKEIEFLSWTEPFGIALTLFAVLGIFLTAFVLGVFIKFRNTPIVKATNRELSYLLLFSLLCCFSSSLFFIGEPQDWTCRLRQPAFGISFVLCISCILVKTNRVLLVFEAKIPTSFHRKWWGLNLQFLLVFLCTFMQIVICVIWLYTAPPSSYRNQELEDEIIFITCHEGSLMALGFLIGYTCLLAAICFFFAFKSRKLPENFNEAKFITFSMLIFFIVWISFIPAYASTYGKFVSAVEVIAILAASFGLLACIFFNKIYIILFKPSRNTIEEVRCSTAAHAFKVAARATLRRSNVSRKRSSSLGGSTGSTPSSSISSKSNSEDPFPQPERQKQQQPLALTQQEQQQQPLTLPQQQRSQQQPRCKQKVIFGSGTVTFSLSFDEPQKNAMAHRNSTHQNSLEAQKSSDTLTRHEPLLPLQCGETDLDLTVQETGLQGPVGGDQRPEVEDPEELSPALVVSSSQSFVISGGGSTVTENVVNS
- ASSAY_SUMMARY: CaSR FLIPR assay (calcilytic activity)
- Assay type: cell-based
- Set-up: expressed in transfected cells
- CONDITION_DESCRIPTION: HEK293 cells stably expressing human recombinant CaSR; 1 mM CaCl2 agonist; Tables 1-24; read-out: FLIPR ASSAY IC50
pIC50: −log10 of the molar value.
METRIC: pIC50

(A) Cc1ccc([C@@H](C)OC[C@H](O)CNC(C)(C)Cc2ccc3c(c2)OCO3)c2c1O[C@@H]1[C@@H](C(=O)O)[C@H]21
(B) CSc1ccc(CC(C)(C)NC[C@@H](O)CO[C@H](C)c2ccc(C)c3c2[C@@H]2[C@H](O3)[C@H]2C(=O)O)cc1C
(C) Cc1ccc([C@@H](C)OC[C@H](O)CNC(C)(C)CSCc2ccccc2)c2c1O[C@@H]1[C@@H](C(=O)O)[C@H]21
Req: Descending sort on pIC50 required. Return value: ordered labels per request.
Resp: A, B, C
(A: 7.30, B: 7.09, C: 6.30)
